Source: ChEMBL document CHEMBL1641504

Notes on Ki obtained with Carbonic anhydrase 1 (Homo sapiens).
Sequence (P00915 whole entry): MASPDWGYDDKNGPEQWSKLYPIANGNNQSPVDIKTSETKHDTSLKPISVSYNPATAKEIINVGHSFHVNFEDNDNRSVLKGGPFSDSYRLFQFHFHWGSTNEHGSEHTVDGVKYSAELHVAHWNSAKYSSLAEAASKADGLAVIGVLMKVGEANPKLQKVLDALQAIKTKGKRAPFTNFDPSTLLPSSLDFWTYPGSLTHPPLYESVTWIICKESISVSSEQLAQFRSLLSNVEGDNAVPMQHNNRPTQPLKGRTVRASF

Recorded results for 3 compounds are shown here.
- compound: "[Br-].[K+] [POTASSIUM BROMIDE]"
  measured: "4 mM"
- compound: "O=[N+]([O-])[O-].[K+] [POTASSIUM NITRATE]"
  measured: "7 mM"
- compound: "[Cl-].[K+] [POTASSIUM CHLORIDE]"
  measured: "6 mM"

Field: next compound
Query :: # input compound: [I-].[K+] [POTASSIUM IODIDE] ; wanted: its Ki
Result :: 0.3 mM

---

Entries and their pKi values follow.
target: Carbonic anhydrase 5A, mitochondrial (Homo sapiens, UniProt P35218)
Sequence (P35218 whole entry): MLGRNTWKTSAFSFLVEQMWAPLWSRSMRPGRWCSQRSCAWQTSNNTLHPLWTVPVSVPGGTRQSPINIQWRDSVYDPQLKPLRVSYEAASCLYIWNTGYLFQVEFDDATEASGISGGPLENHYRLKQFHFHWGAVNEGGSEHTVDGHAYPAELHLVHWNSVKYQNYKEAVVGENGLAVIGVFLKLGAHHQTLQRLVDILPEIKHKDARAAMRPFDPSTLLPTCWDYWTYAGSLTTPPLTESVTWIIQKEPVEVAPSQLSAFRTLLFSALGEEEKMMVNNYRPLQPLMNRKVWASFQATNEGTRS
Worth noting: pKi values are minus log10 of concentrations stated in mol/L.

Recorded results for 8 compounds are shown here.
- compound: "O=[N+]([O-])[O-].[K+] [POTASSIUM NITRATE]"
  target desc: "Carbonic anhydrase 5A, mitochondrial (Homo sapiens, UniProt P35218)"
  endpoint label: "pKi"
  measured: 1.80
- compound: "[F-].[K+] [POTASSIUM FLUORIDE]"
  target desc: "Carbonic anhydrase 5A, mitochondrial (Homo sapiens, UniProt P35218)"
  endpoint label: "pKi"
  measured: 0.62
- compound: "O=NO [SODIUM NITRITE]"
  target desc: "Carbonic anhydrase 5A, mitochondrial (Homo sapiens, UniProt P35218)"
  endpoint label: "pKi"
  measured: 1.80
- compound: "[I-].[K+] [POTASSIUM IODIDE]"
  target desc: "Carbonic anhydrase 5A, mitochondrial (Homo sapiens, UniProt P35218)"
  endpoint label: "pKi"
  measured: 1.60
- compound: "N#C[S-].[Na+] [THIOCYANATE SODIUM]"
  target desc: "Carbonic anhydrase 5A, mitochondrial (Homo sapiens, UniProt P35218)"
  endpoint label: "pKi"
  measured: 3.13
- compound: "[N-]=[N+]=[N-] [SODIUM AZIDE]"
  target desc: "Carbonic anhydrase 5A, mitochondrial (Homo sapiens, UniProt P35218)"
  endpoint label: "pKi"
  measured: 3.52
- compound: "O=S(=O)([O-])[O-].[Na+].[Na+] [SODIUM SULFATE ANHYDROUS]"
  target desc: "Carbonic anhydrase 5A, mitochondrial (Homo sapiens, UniProt P35218)"
  endpoint label: "pKi"
  measured: 0.17
- compound: "[Cl-].[K+] [POTASSIUM CHLORIDE]"
  target desc: "Carbonic anhydrase 5A, mitochondrial (Homo sapiens, UniProt P35218)"
  endpoint label: "pKi"
  measured: 0.81

Field: next compound
Query :: # input compound: [Br-].[K+] [POTASSIUM BROMIDE] ; wanted: its pKi
Result :: 1.30

---

target: Carbonic anhydrase 2 (Homo sapiens)
endpoint label: Ki

Query :: # input compound: [Cl-].[K+] [POTASSIUM CHLORIDE] ; wanted: its Ki
Result :: > 200 mM

---

molecular target: Carbonic anhydrase 4 (Homo sapiens, UniProt P22748)
Sequence (P22748 whole entry): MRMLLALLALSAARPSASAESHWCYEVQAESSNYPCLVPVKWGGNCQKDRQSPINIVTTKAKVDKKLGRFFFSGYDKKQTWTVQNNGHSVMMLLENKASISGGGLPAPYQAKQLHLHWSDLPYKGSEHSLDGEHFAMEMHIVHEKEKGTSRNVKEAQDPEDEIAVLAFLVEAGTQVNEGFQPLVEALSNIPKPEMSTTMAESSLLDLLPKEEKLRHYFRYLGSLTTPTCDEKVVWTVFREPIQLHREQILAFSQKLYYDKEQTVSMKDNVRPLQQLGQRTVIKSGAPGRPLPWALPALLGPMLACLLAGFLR
Ki under 90 µM gets T, anything at or over 90 µM gets F.

- compound: "[F-].[K+] [POTASSIUM FLUORIDE]"
  qualitative label: "T"

Query :: State whether 90 µM exceeds Ki recorded for [I-].[K+] [POTASSIUM IODIDE] .
Result :: T

Query :: State whether 90 µM exceeds Ki recorded for O=S(=O)([O-])[O-].[Na+].[Na+] [SODIUM SULFATE ANHYDROUS] .
Result :: F

Query :: State whether 90 µM exceeds Ki recorded for N#C[S-].[Na+] [THIOCYANATE SODIUM] .
Result :: F

Query :: State whether 90 µM exceeds Ki recorded for O=[N+]([O-])[O-].[K+] [POTASSIUM NITRATE] .
Result :: F

---

molecular target: Carbonic anhydrase 9 (Homo sapiens, UniProt Q16790)
Ki under 30 mM gets T, anything at or over 30 mM gets F.

- compound: "[F-].[K+] [POTASSIUM FLUORIDE]"
  qualitative label: "F"
- compound: "[Br-].[K+] [POTASSIUM BROMIDE]"
  qualitative label: "T"
- compound: "O=[N+]([O-])[O-].[K+] [POTASSIUM NITRATE]"
  qualitative label: "F"
- compound: "[Cl-].[K+] [POTASSIUM CHLORIDE]"
  qualitative label: "F"
- compound: "N#C[S-].[Na+] [THIOCYANATE SODIUM]"
  qualitative label: "T"
- compound: "[N-]=[N+]=[N-] [SODIUM AZIDE]"
  qualitative label: "T"

Okay, now this compound:
Query :: State whether 30 mM exceeds Ki recorded for [I-].[K+] [POTASSIUM IODIDE] .
Result :: T
